Source: the supplement of paper PMC10065799

Test system: c-Src
Procedure Summary: phosphorylation enrichment, bacterial display (enrichment ratio); higher = better substrate or ligand; peptides without Tyr show the background
Endpoint Name: phosphorylation enrichment
Keep it simple and answer with nothing but the number.

# phosphorylation enrichment of CSRHFYQLTKL [AR_Y858_R856H] = 0.422

The recorded phosphorylation enrichment for LADKPYTFEYY [FXN_Y118_D122Y] is 2.68

Sample MDFRSYPHEFG [RBM10_Y44_R46H_YF] ; phosphorylation enrichment observed: 0.317

Form: sequence = FFRRHYPLTTL [TNS4_Y644] ; phosphorylation enrichment = 0.516

YLGRDYLETLM [DUS3L_Y610] has a reported phosphorylation enrichment of 0.538

sequence VMLENYSNLVS [ZFP69_Y109] , phosphorylation enrichment observed: 0.363

Short answer for VERIGYDFIPT [CBS_Y308_G305R] : phosphorylation enrichment was 0.434

// phosphorylation enrichment lookup, sequence = VSNFNYFYHRE [KCNA1_Y413] , result: 0.512

Memo: CTTIHYNFMCN [TP53_Y234_Y236F] , reported phosphorylation enrichment: 0.487

Reported phosphorylation enrichment for YHIDHYLGKEM [G6PD_Y202_R198H] was 0.546

Form: sequence = ELELLYPDRNS [NYX_Y284_L285P] ; phosphorylation enrichment = 0.489

The reported value for IKELTYQMEED [MYH7_Y1852_T1854M] in terms of phosphorylation enrichment is 1.21

So, PARLEYYENEK [IRS1_Y46] ? Its phosphorylation enrichment was 0.711

Entry under test: QTLTDYDTRFF [CSNK2A3_Y131_I133T_YF] . Its phosphorylation enrichment was 0.573

The value of phosphorylation enrichment measured for the sequence YSKDNYKRVTG [PANK2_Y405] turned out to be 0.44

Entry GDFLSYREFHS [ERBIN_Y1107_YF] ; phosphorylation enrichment = 0.423

phosphorylation enrichment measured on RKETFYTLSCR [GUCY2C_Y681] = 2.02

The recorded phosphorylation enrichment for EAIMTYVSSFY [ACTN4_Y260_K255E] is 0.855

Record FYDANYDGKEY [MAPRE2_Y162] . Reported phosphorylation enrichment: 0.941

What the record says about TGEKLYQRKEF [ZNF283_Y627] : phosphorylation enrichment is 0.447

Kindly note the recorded phosphorylation enrichment for TTSQPYRCLCS [USH2A_Y534] , which is 0.562

phosphorylation enrichment for IGKDLYANNVL [ACTA2_Y296_R292G] is 0.55

----------
Target Entity: EPHB2 (UniProt P29323)
Sequence (P29323 whole entry, looked up): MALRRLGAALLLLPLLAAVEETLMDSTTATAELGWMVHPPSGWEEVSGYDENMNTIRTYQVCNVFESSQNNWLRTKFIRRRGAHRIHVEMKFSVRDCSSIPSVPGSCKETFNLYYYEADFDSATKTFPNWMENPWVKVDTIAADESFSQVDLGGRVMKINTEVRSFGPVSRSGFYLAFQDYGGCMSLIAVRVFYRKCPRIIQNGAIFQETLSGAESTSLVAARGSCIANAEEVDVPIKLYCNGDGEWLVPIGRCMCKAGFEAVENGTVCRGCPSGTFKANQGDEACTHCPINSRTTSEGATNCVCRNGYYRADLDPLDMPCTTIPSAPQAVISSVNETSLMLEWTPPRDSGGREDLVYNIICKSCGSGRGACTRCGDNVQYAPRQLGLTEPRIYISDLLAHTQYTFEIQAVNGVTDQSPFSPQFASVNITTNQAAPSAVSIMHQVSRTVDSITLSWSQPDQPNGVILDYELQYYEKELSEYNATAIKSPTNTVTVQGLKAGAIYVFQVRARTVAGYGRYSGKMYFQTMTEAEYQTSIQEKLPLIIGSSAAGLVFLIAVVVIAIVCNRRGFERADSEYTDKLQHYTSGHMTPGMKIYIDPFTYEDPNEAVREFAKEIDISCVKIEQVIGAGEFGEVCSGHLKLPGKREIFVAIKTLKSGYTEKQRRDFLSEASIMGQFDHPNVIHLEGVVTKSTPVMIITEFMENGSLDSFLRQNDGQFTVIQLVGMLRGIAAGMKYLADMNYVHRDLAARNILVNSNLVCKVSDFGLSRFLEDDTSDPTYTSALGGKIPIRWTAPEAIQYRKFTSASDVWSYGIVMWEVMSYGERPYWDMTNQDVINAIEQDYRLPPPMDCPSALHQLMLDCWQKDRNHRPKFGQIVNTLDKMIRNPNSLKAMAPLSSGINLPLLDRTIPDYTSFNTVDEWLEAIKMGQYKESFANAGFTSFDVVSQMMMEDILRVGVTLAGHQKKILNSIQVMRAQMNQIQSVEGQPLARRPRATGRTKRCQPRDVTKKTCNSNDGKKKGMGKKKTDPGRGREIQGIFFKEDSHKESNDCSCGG
Procedure Summary: phosphorylation enrichment, bacterial display (enrichment ratio); higher = better substrate or ligand; peptides without Tyr show the background
Each record's phosphorylation enrichment is compared with low = under 0.5, medium = from 0.5 up to 0.6, high = 0.6 and over to give its class.

Could you tell me which band RNGDRYFKGIV [DCX_Y64] belongs to? high

Category of EKLQQYIAPGM [EPHB3_Y600] : low

Please let me know in which category the item LFSNAYLNDLA [ALDH1A1_Y119_YF] belongs. high

Into which bin does this sequence go? CSRHFYQLTKL [AR_Y858_R856H] medium

# bin lookup: classify RDWSLYFKIIE [KRT18_Y129_H128L] by its phosphorylation enrichment medium

Where would SNYRAYATEPQ [TNNI3_Y29_H34Q] land among the classes by reported phosphorylation enrichment? low

Lab log: VVQGIYGFHHH [UFSP2_Y285_Y290H_YF] — assign phosphorylation enrichment category high

Into which bin does this sequence go? VGQRPYQPLPE [REEP3_Y170] low

Given RSSGPYGGGGQ [HNRNPA1_Y341] , name the class its phosphorylation enrichment places it in. low

----------
Target Entity: Grb2 SH2 (UniProt P62993)
Sequence (P62993 whole entry, looked up): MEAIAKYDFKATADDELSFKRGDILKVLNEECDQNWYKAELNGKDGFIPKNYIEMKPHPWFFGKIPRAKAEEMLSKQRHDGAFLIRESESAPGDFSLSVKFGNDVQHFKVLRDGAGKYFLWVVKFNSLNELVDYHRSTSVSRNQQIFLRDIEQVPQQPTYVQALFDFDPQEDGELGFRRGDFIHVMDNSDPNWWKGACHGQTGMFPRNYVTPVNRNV
Procedure Summary: SH2 binding enrichment of the phosphorylated peptide, bacterial display (enrichment ratio); higher = better substrate or ligand; peptides without Tyr show the background
Field: class. Source value: SH2 binding enrichment. Ranges: group A = under 0.9, group B = from 0.9 up to 1, group C = 1 and over

Dear colleague, I would appreciate it if you could identify the bin for RSSGPYGGGGQ [HNRNPA1_Y341] and reply at your convenience. group B

Which bin, given its SH2 binding enrichment, does QRPYVYYYSYL [PTEN_Y176_R173P] occupy? group C

Which of the defined bands does the recorded SH2 binding enrichment of PESIMYRKFTT [NTRK3_Y744] sit within? group C

Given RLRKYYLGKYL [KLB_Y906] , name the class its SH2 binding enrichment places it in. group A

Form field 'band' for TRLAQYDSNSK [BMX_Y216_S212R] group B

Assign a category based on measured SH2 binding enrichment for MIRSTYALGGL [CPS1_Y590_A589T] and give only the class name. group A

Form: Item = RGFRVYFTPDS [PTPRF_Y450_YF] ; Class = ? group C

Lab note: sort KEGSAYGSQSV [NFKB2_Y868_D865G] into the matching SH2 binding enrichment band. group A

Into which category would you place QGIPWYHSQSP [FOXF1_Y331_R330W] ? group C

Which bin should I file RLLRGHDQSAY [HLA-C_Y137_Y137H] under? group B

Input EALDFYGEVRI [PTEN_Y155_T160I] ; output its category group C

Would you mind sorting KLYRVYCDMNT [FGB_Y269_P265L] into the appropriate category? group A

Exam item: assign HRAVEYLLTGI [RAD23A_Y197] to the correct category. group A

Category of TLQSMFGCDVG [HLA-B_Y123_Y123F] , please. group A

Which of the defined bands does the recorded SH2 binding enrichment of AHPIIYEIIEA [PYKtide_E_2014] sit within? group C

Given PIDLFYLMDLS [ITGB2_Y131_YF] , name the class its SH2 binding enrichment places it in. group B

Kindly identify the class of KGSLPYSLILD [PKD1L2_Y406_N407S] . group A

Which band does FSGLAYTMERS [GLUD1_Y512_H507Y_YF] fall in? group A

----------
Target Entity: Fes (UniProt P07332)
Sequence (P07332 whole entry, looked up): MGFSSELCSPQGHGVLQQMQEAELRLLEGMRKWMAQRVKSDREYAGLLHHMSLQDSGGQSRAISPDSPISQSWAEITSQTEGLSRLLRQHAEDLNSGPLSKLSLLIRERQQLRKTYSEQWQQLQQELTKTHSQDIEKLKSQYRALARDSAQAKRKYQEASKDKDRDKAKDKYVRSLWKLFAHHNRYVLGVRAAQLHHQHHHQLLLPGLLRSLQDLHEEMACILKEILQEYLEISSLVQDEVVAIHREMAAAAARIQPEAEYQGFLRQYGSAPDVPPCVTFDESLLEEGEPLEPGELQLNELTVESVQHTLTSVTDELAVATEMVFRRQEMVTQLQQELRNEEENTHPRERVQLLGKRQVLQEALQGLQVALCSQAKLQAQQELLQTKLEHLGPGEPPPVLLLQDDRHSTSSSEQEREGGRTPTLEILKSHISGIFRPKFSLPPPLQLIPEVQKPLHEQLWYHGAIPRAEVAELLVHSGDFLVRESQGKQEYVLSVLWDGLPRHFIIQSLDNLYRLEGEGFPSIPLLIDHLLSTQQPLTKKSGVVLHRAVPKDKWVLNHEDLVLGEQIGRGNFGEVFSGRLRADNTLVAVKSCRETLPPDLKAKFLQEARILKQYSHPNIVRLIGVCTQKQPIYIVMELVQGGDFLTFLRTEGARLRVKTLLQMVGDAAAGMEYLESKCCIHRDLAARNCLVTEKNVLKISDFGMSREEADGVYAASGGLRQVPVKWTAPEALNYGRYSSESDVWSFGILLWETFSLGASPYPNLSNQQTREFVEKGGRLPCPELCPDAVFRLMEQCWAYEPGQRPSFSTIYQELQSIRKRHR
Procedure Summary: phosphorylation enrichment, bacterial display (enrichment ratio); higher = better substrate or ligand; peptides without Tyr show the background
Endpoint Name: phosphorylation enrichment
Enter the number alone.

The sequence identified as HNLPIYEGYAL [ACTA1_Y168_V165L] registered its phosphorylation enrichment at 1.16

The sequence identified as RSLLQYGGSAN [ANK1_Y624] registered its phosphorylation enrichment at 0.857

Just so you know, measured phosphorylation enrichment for MHDKEYFSVHN [MET_Y1234_Y1230H_YF] came out at 0.741

Per the records, this sequence ( ATRKAYGQALA [TKT_Y321] ) has phosphorylation enrichment equal to 0.612

# sequence YISLIYTNYEV [GSTP1_Y109_A114V] ; its phosphorylation enrichment = 1.55

For reference, reported phosphorylation enrichment for HIPFRYPKEFQ [IDS_Y234] stands at 1.26

# phosphorylation enrichment (sequence: PNAFIYVVQLP [L1CAM_Y420_A415P_YF] ) is 1.56

----------
Tested on: c-Abl (mouse)
Procedure Summary: phosphorylation enrichment, bacterial display (enrichment ratio); higher = better substrate or ligand; peptides without Tyr show the background
Exercise: state measured phosphorylation enrichment for each of the sequences provided.
The answer should be a number; do not append a unit.

Input SVTCTYSRALN [TP53_Y126_P128R] . Output phosphorylation enrichment: 0.916

Note to self: phosphorylation enrichment recorded for RSRQIYDAYIM [GRK3_Y109] was 6.11

Documented phosphorylation enrichment of FGFPGYQCKHF [TIMP3_Y177_S179C_YF] : 0.716

The sequence ATGMEYLASQK [FGFR2_Y616_R612T] showed phosphorylation enrichment equal to 0.58

Entry under test: RNYDTYTAGLS [RHBDD1_Y264] . Its phosphorylation enrichment was 0.729

Lab book: phosphorylation enrichment of ALAHKCHGGGG [HBB_Y146_Y146C] noted as 0.758

The recorded phosphorylation enrichment for PELINYQQHNS [BTK_Y361_H362Q] is 1.22

// sample AEDKPYAELWM [MPI_Y46] , its phosphorylation enrichment was 0.854

Form field phosphorylation enrichment, entry KRAAIYNPVIF [RHO_Y301_S297R_YF] : 0.741

Record FIGRIYLYLTK [GARS1_Y414] . Reported phosphorylation enrichment: 1.18

In plain terms, QFNPEYVQQAS [LRRC7_Y1058_H1054Y_YF] has a documented phosphorylation enrichment of 0.904

Short answer for GLAELYEYKKK [CKAP5_Y1854] : phosphorylation enrichment was 0.464

Entry AIDVGYRLIDC [AKR1B1_Y40_H42L] ; phosphorylation enrichment = 0.861

// sample ILGRFYETSSI [PAX2_Y73_G76S_YF] , its phosphorylation enrichment was 0.606

Recorded result, VIEFSYTSADG [DHCR7_Y382_C380Y_YF] , phosphorylation enrichment: 0.608

For ALMGPYHGQVL [HADHA_Y343_L342P] the sequence record lists phosphorylation enrichment as 0.61

Quick note, phosphorylation enrichment for ILCTVYAFKMR [GRM3_Y754_T758M] landed at 0.883

SKNSKYNAGST [PSEN1_Y315_E318G] has a reported phosphorylation enrichment of 0.677

// phosphorylation enrichment lookup, sequence = HIPFRYPKEFQ [IDS_Y234] , result: 0.946

The reported value for FDCGMYSHLQG [LGR4_Y848_YF] in terms of phosphorylation enrichment is 1.07

Data point: PEVRRHVLPLN [RPE65_Y368_Y368H] ; phosphorylation enrichment = 1.73

response.value for DKITQYVEEVR [STX2_Y49_K54R] (field: phosphorylation enrichment) = 0.605
